Source: patent US10351827B2

Tested on: iPS(Foreskin)-4-derived d8 HPTC-like cells
Conditions: human, 16 h, 1 μg/ml
REPORTED_PROPERTY: IL8 Expression Levels

Field: example entries. Status: answers known.
>>> result("C=CC[C@@H]1/C=C(\\C)C[C@H](C)C[C@H](OC)[C@H]2O[C@@](O)(C(=O)C(=O)N3CCCC[C@H]3C(=O)O[C@H](/C(C)=C/[C@@H]3CC[C@@H](O)[C@H](OC)C3)[C@H](C)[C@@H](O)CC1=O)[C@H](C)C[C@@H]2OC")
"7.8 ± 0.4"
>>> result("COc1ccc(C[C@H](N)C(=O)N[C@H]2[C@@H](O)[C@H](n3cnc4c(N(C)C)ncnc43)O[C@@H]2CO)cc1")
"0.8 ± 0.2"
>>> result("C[C@H]1O[C@H](O[C@H]2[C@H](O)[C@@H](O)[C@@H](O[C@H]3[C@H](O)[C@@H](O)C(O)O[C@@H]3CO)O[C@@H]2CO)[C@H](O)[C@@H](O)[C@@H]1N[C@H]1C=C(CO)[C@@H](O)[C@H](O)[C@H]1O (stereo partly shown)")
"0.5 ± 0.1"

Item CO[C@H]1/C=C/O[C@@]2(C)Oc3c(C)c(O)c4c(O)c(c(/C=N/N5CCN(C)CC5)c(O)c4c3C2=O)NC(=O)/C(C)=C\C=C\[C@H](C)[C@H](O)[C@@H](C)[C@@H](O)[C@@H](C)[C@H](OC(C)=O)[C@@H]1C has what recorded IL8 Expression Levels?
2.5 ± 0.4

###

IL6 Expression Levels overview
System: iPS(Foreskin)-4-derived d8 HPTC-like cells
Details: human, 16 h, 1000 μg/ml

Field: example entries. Status: answers known.
>>> result("CO[C@H]1/C=C/O[C@@]2(C)Oc3c(C)c(O)c4c(O)c(c(/C=N/N5CCN(C)CC5)c(O)c4c3C2=O)NC(=O)/C(C)=C\\C=C\\[C@H](C)[C@H](O)[C@@H](C)[C@@H](O)[C@@H](C)[C@H](OC(C)=O)[C@@H]1C")
"9.3 ± 0.6"
>>> result("NC[C@H]1O[C@H](O[C@H]2[C@H](O)[C@@H](O[C@H]3O[C@H](CO)[C@@H](O)[C@H](N)[C@H]3O)[C@H](N)C[C@@H]2N)[C@H](N)C[C@@H]1O")
"2.7 ± 0.4"
>>> result("CCC[C@@H]1C[C@@H](C(=O)N[C@@H]([C@H]2O[C@H](SC)[C@H](O)[C@@H](O)[C@H]2O)[C@@H](C)O)N(C)C1")
"1.4 ± 0.2"

Consider the record given below.
For iPS(Foreskin)-4-derived d8 HPTC-like cells, provide IL6 Expression Levels of CC(=O)Nc1ccc(O)cc1 please.
0.3 ± 0.1

###

IL6 Expression Levels overview
Tested on: iPS(Foreskin)-4-derived d8 HPTC-like cells
Conditions: 10 μg/ml, overnight (16 h), qPCR, normalized to vehicle control (=1), mean +/- s.d., n=3
Lab note: jot the number down without any unit.

Field: example entries. Status: answers known.
>>> recorded_number("CC(=O)[O-].CC(=O)[O-].[Pb+2] [Lead acetate]")
1.2
>>> recorded_number("O=[As]O[As]=O (stereo not drawn) [Arsenic (III) oxide]")
5.2
>>> recorded_number("[Cl][Cu][Cl] [Copper (II) chloride]")
2.2

Item [Cl][Cd][Cl] [Cadmium chloride] has what recorded IL6 Expression Levels?
10.9

Item [K+].[K+].[O]=[Cr](=[O])([O-])[O][Cr](=[O])(=[O])[O-] [Potassium dichromate] has what recorded IL6 Expression Levels?
1.0

Item [Cl][Au] [Gold (I) chloride] has what recorded IL6 Expression Levels?
1.2

Item CN[C@H](CC(C)C)C(=O)N[C@H]1C(=O)N[C@@H](CC(N)=O)C(=O)N[C@H]2C(=O)N[C@H]3C(=O)N[C@H](C(=O)N[C@H](C(=O)O)c4cc(O)cc(O)c4-c4cc3ccc4O)[C@H](O)c3ccc(c(Cl)c3)Oc3cc2cc(c3O[C@@H]2O[C@H](CO)[C@@H](O)[C@H](O)[C@H]2O[C@H]2C[C@](C)(N)[C@H](O)[C@H](C)O2)Oc2ccc(cc2Cl)[C@H]1O has what recorded IL6 Expression Levels?
1.4

Item COc1cccc2c1cc([N+](=O)[O-])c1c(C(=O)O)cc3c(c12)OCO3 has what recorded IL6 Expression Levels?
3.3

Item [Bi+3].[Bi+3].[O-2].[O-2].[O-2] [Bismuth (III) oxide] has what recorded IL6 Expression Levels?
1.3
